# Tested on: Klebsiella species A20468
# Measurement description: MIC, tube dilution, Klebsiella species A20468
# Format: cell-based
# Condition notes: Klebsiella species (K. pneumoniae) A20468; overnight 37° C.
Measured metric: Minimum Inhibitory Concentration (M.I.C.)

Sample answers from the record:
- COP(=O)(CCC1=C(C(=O)O)N2C(=O)CC2S1)OC (stereo not shown): > 125 µg/mL
- O=C([O-])C1=C(Cc2ccccc2)S[C@@H]2CC(=O)N12.[Na+] [Example 13, Sodium 2-Benzylpenem-3-carboxylate]: 125 µg/mL
- CC1=C(C(=O)O)N2C(=O)C[C@H]2S1 [Preparation 4(+), (+)-2-Methylpenem-3-carboxylic Acid]: > 125 µg/mL
- O=C(O)C1=C(COc2ccccc2)S[C@@H]2CC(=O)N12: > 125 µg/mL

For the 6 compounds below, give their Minimum Inhibitory Concentration (M.I.C.) values.
1. NCCCC1=C(C(=O)O)N2C(=O)CC2S1 (stereo not shown)
2. CCC1C(=O)N2C(C(=O)[O-])=C(C)S[C@H]12.[Na+] (stereo partly drawn) [1 (trans)]
3. CC1=C(C(=O)O)N2C(=O)C[C@H]2S1 [Preparation 4(-), (-)-2-Methylpenem-3-carboxylic Acid]
4. NC1CCC(C2=C(C(=O)O)N3C(=O)C[C@H]3S2)C1 (single isomer, unassigned) [98 isomer B]
5. NC1CCC(C2=C(C(=O)O)N3C(=O)C[C@H]3S2)C1 (single isomer, unassigned) [98 isomer C]
6. NCCCCCC1=C(C(=O)O)N2C(=O)C[C@H]2S1

1. > 125 µg/mL
2. > 125 µg/mL
3. > 125 µg/mL
4. > 63 µg/mL
5. > 63 µg/mL
6. > 63 µg/mL
